System: AncSZ
Test: phosphorylation enrichment, bacterial display (enrichment ratio); higher = better substrate or ligand; peptides without Tyr show the background;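 further: 11-residue human phosphosite peptides and single-mutation variants displayed on the E. coli surface, counted by deep sequencing, each peptide's frequency after selection divided by its frequency in the unselected input library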;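 further: frequency after pTyr selection over input frequency; kinase dosed for 20-30% of maximal phosphorylation in three min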
Returns y if the recorded phosphorylation enrichment is greater than or equal to 0.7, and n otherwise.

Study these solved cases before continuing.
Q) Given SRASYYRKGGC [ALK_Y1283_Y1278S] , state whether its phosphorylation enrichment is at least 0.7.
A) n

Q) Given WDLSEYSYKDP [ITGA3_Y237] , state whether its phosphorylation enrichment is at least 0.7.
A) y

Q) Given PLRANYLIARV [HLCS_Y635_D634N] , state whether its phosphorylation enrichment is at least 0.7.
A) y

Q) Given EYLHKYKGFKI [SYNE1_Y6953_Q6951H] , state whether its phosphorylation enrichment is at least 0.7.
A) y

Q) Given VSYDEYRYRSF [CFTR_Y515_V520F] , state whether its phosphorylation enrichment is at least 0.7.
A) y

***
Q) Given PAEPRYRARQR [KCNJ11_Y26] , state whether its phosphorylation enrichment is at least 0.7.
A) y

Q) Given LKGQVYILGRE [ASS1_Y359] , state whether its phosphorylation enrichment is at least 0.7.
A) y

Q) Given ARSHIYTFASC [MEFV_Y741] , state whether its phosphorylation enrichment is at least 0.7.
A) y

====

System: c-Src
Test: phosphorylation enrichment, bacterial display (enrichment ratio); higher = better substrate or ligand; peptides without Tyr show the background
measuredMetric: phosphorylation enrichment

Here is how some sequences turned out for phosphorylation enrichment.
Q) Write down the reported phosphorylation enrichment (system: c-Src) of PVVKLYATEGR [RP1_Y199_D202E]
A) 0.54

Q) Write down the reported phosphorylation enrichment (system: c-Src) of FSNVLYRPRGP [TMIGD2_Y197_A202P_YF]
A) 0.463

Q) Write down the reported phosphorylation enrichment (system: c-Src) of KRLDGYVLEGW [IGSF9_Y656_R661W]
A) 0.418

Q) Write down the reported phosphorylation enrichment (system: c-Src) of ILKPDYQPLAI [HYDIN_Y1072]
A) 0.376

Q) Write down the reported phosphorylation enrichment (system: c-Src) of AQPHTYEEPGR [EPHA8_Y616_E612Q]
A) 0.452

***
Q) Write down the reported phosphorylation enrichment (system: c-Src) of MSPPGYKLVNG [GJA1_Y286_T290N]
A) 0.461

Q) Write down the reported phosphorylation enrichment (system: c-Src) of TQPSPYAVYRF [RPGRIP1_Y823]
A) 10.1

Q) Write down the reported phosphorylation enrichment (system: c-Src) of KRAIGHYSATS [FAM120A_Y327_Y327H]
A) 0.434

Q) Write down the reported phosphorylation enrichment (system: c-Src) of DRPASYKKKSM [PDGFRA_Y768]
A) 0.409

Q) Write down the reported phosphorylation enrichment (system: c-Src) of EADRKYEEVAH [TPM3_Y163_R168H]
A) 0.421

Q) Write down the reported phosphorylation enrichment (system: c-Src) of NHYKICNLCAE [PTEN_Y68_Y68C]
A) 0.372

====

Tested on: AncSZ
Experiment: phosphorylation enrichment, bacterial display (enrichment ratio); higher = better substrate or ligand; peptides without Tyr show the background
measuredMetric: phosphorylation enrichment
Lab note: write the figure by itself, no unit.

Here is how some sequences turned out for phosphorylation enrichment.
Q) Write down the reported phosphorylation enrichment (system: AncSZ) of RKQQLYTAMEE [CCDC39_Y593]
A) 0.933

Q) Write down the reported phosphorylation enrichment (system: AncSZ) of NVDGKYSFLKV [GRM3_Y478_G475D_YF]
A) 0.624

***
Q) Write down the reported phosphorylation enrichment (system: AncSZ) of TRSYDYMEGGD [FGF7_Y58]
A) 1.02

Q) Write down the reported phosphorylation enrichment (system: AncSZ) of GEDEPYAEPFA [APBA1_Y183_S184A_YF]
A) 1.43

Q) Write down the reported phosphorylation enrichment (system: AncSZ) of VRFMAYTDEIF [F8_Y450_T454I]
A) 1.21

Q) Write down the reported phosphorylation enrichment (system: AncSZ) of NTTIHYNFMCN [TP53_Y234_C229N_YF]
A) 1.14

Q) Write down the reported phosphorylation enrichment (system: AncSZ) of ETGEPCRLSPE [EIF4G1_Y311_Y311C]
A) 1.13

Q) Write down the reported phosphorylation enrichment (system: AncSZ) of DENCFYTRAAS [RPS19_Y54_W52C]
A) 1
